Every entry's value here was drawn from PubChem BioAssay.

Experiment: small-molecule binders of probe aInhba, primary screen, biochemical, small-molecule microarray, 635/667 nm fluorescence (AID 1148);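 note: score merges 667nm spot fluorescence with signal-to-noise for antibody binding to printed compounds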
Details: higher = more signal
Our labelling divides records by composite z-score into ranges: low: < -0.1; intermediate: ≥ -0.1 and < 0.03; high: ≥ 0.03

{"columns": ["compound", "label_class"],
 "data": [
  ["C[N+](C)(C)CCCC[C@@H]1NC(=O)[C@@H]2C[C@H](C(=O)NCCCCCNC(=O)CS)[C@H](c3ccc(O)cc3)N2C1=O", "low"],
  ["O=C(NO)[C@]1(Cc2ccccc2)N=C(c2ccc(OCCCO)cc2)O[C@@H]1c1ccccc1", "intermediate"],
  ["CC(C)(C)OC(=O)CC[C@]1(C(=O)NCc2ccccc2)N=C(c2ccc(OCCCO)cc2)O[C@H]1c1ccccc1N=[N+]=[N-]", "high"],
  ["CC(C)C[C@@H]1NC(=O)[C@@]23C(=O)N[C@@H](Cc4ccccc4)C2[C@H](C)[C@@]2(C)O[C@H]2C3/C=C/C/C=C\\CNC(=O)[C@H](Cc2ccccc2)NC1=O (some centres undefined)", "intermediate"],
  ["COc1ccc([Si](C)(C)[C@@H]2[C@@H](CC(=O)N3CCC[C@H]3CO)O[C@]3(C(=O)N(Cc4ccc(N5CCC5=O)cc4)c4ccccc43)[C@H]2C)cc1", "intermediate"],
  ["COc1ccc([Si](C)(C)[C@H]2[C@H](CC(=O)N(CCO)Cc3ccccc3)O[C@@]3(C(=O)N(Cc4cccc(N5C(=O)COc6ccccc65)c4)c4ccccc43)[C@@H]2C)cc1", "high"],
  ["C=C(/C(=C/C[C@H](OC(=O)c1ccncc1)c1cccc(OCCO)c1)c1cc(C(=O)OC)ccc1OC)C(C)C", "intermediate"],
  ["C=CC[C@@H](OC(=O)Nc1ccc(SC)cc1)c1ccc(OCCO)cc1", "low"],
  ["Cc1ccc(N2C(=O)c3ccccc3[C@](C)(C(=O)NCC(F)(F)F)[C@@H]2c2ccc(CO)cc2)nc1", "low"]
]}

----------
Molecular target: Torsin-1A (Homo sapiens) (UniProt O14656)
Sequence (O14656 whole entry, looked up): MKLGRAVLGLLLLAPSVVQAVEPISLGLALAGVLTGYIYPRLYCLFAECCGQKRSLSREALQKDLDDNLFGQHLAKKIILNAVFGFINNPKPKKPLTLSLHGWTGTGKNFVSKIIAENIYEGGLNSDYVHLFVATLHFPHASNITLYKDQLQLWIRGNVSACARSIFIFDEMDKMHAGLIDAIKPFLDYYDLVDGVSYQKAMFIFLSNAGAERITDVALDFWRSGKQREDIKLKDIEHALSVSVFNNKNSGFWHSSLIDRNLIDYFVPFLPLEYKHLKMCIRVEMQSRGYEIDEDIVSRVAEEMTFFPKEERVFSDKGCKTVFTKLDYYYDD
Experiment: torsin A binders from cell lysate, primary screen, small-molecule microarray, wild-type, 635/667 nm (AID 1149)
Details: COS7 hTOR1A-WT lysate, 635 nm fluorescence, higher = more signal
Each entry below carries its reported composite z-score.

{"columns": ["test_smiles", "test_target", "composite z-score"],
 "data": [
  ["CO[C@H]1O[C@H](CO)[C@@H](OC(=O)CCc2ccccc2)[C@@H]2OC(=O)[C@H](Cc3ccccc3)C/C=C/C[C@@H](Cc3ccccc3)C(=O)O[C@@H]12", "Torsin-1A (Homo sapiens) (UniProt O14656)", 0.0387],
  ["COc1ccc(C#Cc2ccc3c(c2)[C@]2(C(=O)N3)[C@H](c3ccc(O)cc3)N3[C@H](c4ccccc4)[C@H](c4ccccc4)OC(=O)[C@H]3[C@@H]2C(N)=O)cc1", "Torsin-1A (Homo sapiens) (UniProt O14656)", 0.255],
  ["CC(C)C(=C=CC[C@H](O)c1ccc(OCCO)cc1)C[C@H](O)COCc1ccccc1", "Torsin-1A (Homo sapiens) (UniProt O14656)", 1.11]
]}

----------
Target: Left-right determination factor 2 (Homo sapiens) (UniProt O00292)
Sequence (O00292 whole entry, looked up): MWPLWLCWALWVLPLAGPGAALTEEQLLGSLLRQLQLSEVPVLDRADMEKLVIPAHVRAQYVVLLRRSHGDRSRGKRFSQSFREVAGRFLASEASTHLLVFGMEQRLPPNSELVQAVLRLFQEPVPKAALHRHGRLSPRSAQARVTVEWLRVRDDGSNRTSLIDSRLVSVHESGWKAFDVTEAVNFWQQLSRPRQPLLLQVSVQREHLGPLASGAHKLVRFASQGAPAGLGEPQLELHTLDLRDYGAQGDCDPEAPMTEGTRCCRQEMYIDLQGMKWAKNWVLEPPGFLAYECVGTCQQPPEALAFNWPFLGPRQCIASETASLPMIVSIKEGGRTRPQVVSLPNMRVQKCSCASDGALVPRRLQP
Experiment: LEFTY2 binders on small-molecule microarrays, primary screen, biochemical, small-molecule microarray, 635 nm fluorescence scan (AID 1110)
Settings: LEFTY2 binding, higher = more signal

{"columns": ["compound", "composite z-score"],
 "data": [
  ["CC1CC/C=C\\[C@H]2OC34C=CCN(C(C)C)C(=O)[C@H]3N(C(CO)C(C)C)C(=O)[C@@H]4C2C(=O)O1 (some centres undefined)", -0.944],
  ["O=C(O)[C@H]1C[C@H]2C(=O)NCC(=O)N2[C@H]1c1cccc(OCCO)c1", -0.166],
  ["CC(C)N1CC=CC23O[C@@H]4/C=C\\CCCOC(=O)C4[C@H]2C(=O)N(CCCO)[C@@H]3C1=O (some centres undefined)", -1.83],
  ["COC(=O)C(CC#Cc1ccc2c(c1)[C@]1(C(=O)N2)[C@H](C(N)=O)[C@H]2C(=O)O[C@H](c3ccccc3)[C@H](c3ccccc3)N2[C@@H]1c1ccc(O)cc1)C(=O)OC", -1.19]
]}
